Record form. Attribute: log10(IC50). Fill in for each entry.
Molecular target: HDAC6 (Homo sapiens)
Sequence (Q9UBN7 whole entry): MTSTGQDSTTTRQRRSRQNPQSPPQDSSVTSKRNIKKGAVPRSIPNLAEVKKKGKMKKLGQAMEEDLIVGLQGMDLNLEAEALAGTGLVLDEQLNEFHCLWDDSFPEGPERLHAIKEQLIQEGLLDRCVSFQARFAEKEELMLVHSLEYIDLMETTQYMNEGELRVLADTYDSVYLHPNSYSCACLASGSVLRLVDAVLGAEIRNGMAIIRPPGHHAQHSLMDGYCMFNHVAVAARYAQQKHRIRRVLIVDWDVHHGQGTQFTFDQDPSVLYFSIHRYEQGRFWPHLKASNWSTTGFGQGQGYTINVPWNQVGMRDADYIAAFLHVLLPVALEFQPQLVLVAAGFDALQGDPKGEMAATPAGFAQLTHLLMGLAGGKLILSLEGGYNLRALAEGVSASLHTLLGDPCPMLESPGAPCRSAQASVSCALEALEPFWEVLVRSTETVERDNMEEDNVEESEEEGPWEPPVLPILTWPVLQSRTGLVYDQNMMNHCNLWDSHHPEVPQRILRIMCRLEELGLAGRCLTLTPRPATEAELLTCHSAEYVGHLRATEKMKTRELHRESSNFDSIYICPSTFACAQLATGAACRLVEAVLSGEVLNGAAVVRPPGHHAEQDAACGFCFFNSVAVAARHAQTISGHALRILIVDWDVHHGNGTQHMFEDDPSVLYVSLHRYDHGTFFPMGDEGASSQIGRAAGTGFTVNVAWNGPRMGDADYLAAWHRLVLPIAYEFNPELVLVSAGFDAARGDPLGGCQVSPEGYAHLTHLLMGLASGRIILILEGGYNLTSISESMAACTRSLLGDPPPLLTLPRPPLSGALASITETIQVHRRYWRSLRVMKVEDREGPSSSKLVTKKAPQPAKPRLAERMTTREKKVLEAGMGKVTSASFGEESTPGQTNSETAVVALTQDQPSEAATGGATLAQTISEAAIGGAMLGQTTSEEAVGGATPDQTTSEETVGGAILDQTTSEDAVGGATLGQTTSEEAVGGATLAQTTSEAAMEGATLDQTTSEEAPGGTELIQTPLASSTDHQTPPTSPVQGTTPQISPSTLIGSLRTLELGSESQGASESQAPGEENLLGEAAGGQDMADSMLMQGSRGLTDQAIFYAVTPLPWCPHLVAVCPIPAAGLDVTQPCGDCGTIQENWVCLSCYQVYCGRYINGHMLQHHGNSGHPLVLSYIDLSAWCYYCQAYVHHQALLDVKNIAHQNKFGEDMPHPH
Experiment: HDAC inhibition, HDAC6
Type: biochemical
The common logarithm of IC50 in nM is what is listed.

Worked set:
[
  {
    "molecule": "CC(=O)OC[C@H]1OC(Oc2ccc3cc(-c4cn(CCCCCCC(=O)NO)nn4)ccc3c2)C(OC(C)=O)[C@@H](OC(C)=O)[C@@H]1OC(C)=O (stereo in doubt)",
    "log10(IC50)": 0.22
  },
  {
    "molecule": "O=C(CCCCCCn1cc(-c2ccc3cc(O[C@H]4O[C@H](CO)[C@@H](O)[C@H](O)[C@H]4O)ccc3c2)nn1)NO",
    "log10(IC50)": 0.65
  },
  {
    "molecule": "O=C(/C=C/c1ccc2cc(O[C@H]3O[C@H](CO)[C@@H](O)[C@H](O)[C@H]3O)ccc2c1)NO",
    "log10(IC50)": 1.22
  }
]

Please look at the items below and tell me log10(IC50) for each one, in order.
1. O=C(CCCCCCn1cc(-c2ccc(O)cc2)nn1)NO [STR-V-183, reference compound]
2. O=C(CCCCCn1cc(-c2ccc(O[C@H]3O[C@H](CO)[C@@H](O)[C@H](O)[C@@H]3O)cc2)nn1)NO

1: 0.02; 2: 0.81
